FYI, the data here is from patent US20250136606A1.

assay-target: TRPML1 (Homo sapiens)
Sequence (Q9GZU1 whole entry L15A/L16A/L577A/L578A, form open): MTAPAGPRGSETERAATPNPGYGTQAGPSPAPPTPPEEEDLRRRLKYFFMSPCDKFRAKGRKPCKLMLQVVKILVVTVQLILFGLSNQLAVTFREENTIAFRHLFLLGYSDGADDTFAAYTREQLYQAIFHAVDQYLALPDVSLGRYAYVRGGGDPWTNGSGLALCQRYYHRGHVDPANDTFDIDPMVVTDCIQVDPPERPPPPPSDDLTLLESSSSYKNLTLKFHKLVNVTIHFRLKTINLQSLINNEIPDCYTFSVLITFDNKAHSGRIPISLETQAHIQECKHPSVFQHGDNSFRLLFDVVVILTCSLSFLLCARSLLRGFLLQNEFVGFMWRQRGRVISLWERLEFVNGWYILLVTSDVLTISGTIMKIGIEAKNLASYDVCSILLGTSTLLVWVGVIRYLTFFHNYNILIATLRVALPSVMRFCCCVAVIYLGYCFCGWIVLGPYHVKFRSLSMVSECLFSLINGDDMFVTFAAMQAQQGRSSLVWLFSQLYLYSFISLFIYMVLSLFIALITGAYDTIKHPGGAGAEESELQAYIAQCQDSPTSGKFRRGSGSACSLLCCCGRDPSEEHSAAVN
assay-overview: Fluorescent TRPML1 assay (Fluo4-AM calcium fluorescence in doxycycline-induced HEK-293 Trex cells)
Assay type: cell-based
test-parameters: fluorescent calcium assay
Experimental: HEK-293 Trex cells were stably transfected with a construct consisting of the human coding sequence for TRPML1 cloned into the […] plasmid pCDNA5 T/O. Mutations were introduced into the TRPML1 sequence to facilitate expression on the cell surface (Silvia Vergarajauregui, Rosa Puertollano, Traffic. 2006 March; 7(3): 337-353). […] The Trypsin-EDTA is diluted with growth media, and cells are counted. […] EC50 values were calculated using a non-linear regression of Prism. […]
measurement-name: EC50

Some entries whose results are on file:
Cc1nccnc1-c1cn(-c2cc(F)c(F)c(F)c2)c2ncnc(N3CCN(C(=O)OC(C)(C)C)C[C@@H]3C)c12 [Compound 305]: 500 to 2000 nM
C[C@H]1CN(C(=O)OC(C)(C)C)CCN1c1ncnc2c1c(-c1ccccc1F)cn2-c1cc(C#N)cnn1 [Compound 447]: < 100 nM
Cc1nccnc1-c1cn(-c2cccc(C#N)c2)c2ncnc(N3CCN(C(=O)OC(C)(C)C)C[C@@H]3C)c12 [Compound 294]: 500 to 2000 nM

# input for lookup
Bench note, TRPML1 (Homo sapiens): entry C[C@H]1CN(C(=O)OCC(F)(F)F)CCN1c1ncnc2c1c(-c1ccccc1F)cn2-c1cc(C#N)ccn1 [Compound 349] , its EC50 = < 100 nM
